Recorded values, source PubChem BioAssay AID2060338.

# Test system: 556581-035-R-J1-PDC spheroids with HUVEC/MSC, viability;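 note: spheroids exposed to compounds for 7 days before readout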
# assay remarks: Anticancer human tumor 556581-035-R-J1-PDC patient-derived ovarian carcinoma cell line growth inhibition [IpAb]
# experimental setup: second compound 3.16 µM; first compound 0.1 µM; active compounds read low
observed property: viability, T/C (%)
One number for each entry, in %.

These recorded examples may help you get a feel for the data.
# molecule, viability, T/C / %
measured = [
    ("CC(C)n1nc(-c2ccc3oc(N)nc3c2)c2c(N)ncnc21 + CC(C)NCC(C(=O)N1CCN(c2ncnc3c2C(C)CC3O)CC1)c1ccc(Cl)cc1", 18.5),
    ("C=CCn1c(=O)c2cnc(Nc3ccc(N4CCN(C)CC4)cc3)nc2n1-c1cccc(C(C)(C)O)n1 + CC(C)NCC(C(=O)N1CCN(c2ncnc3c2C(C)CC3O)CC1)c1ccc(Cl)cc1", 45.5),
]

Respectfully, I request viability, T/C for each entry included below.
1. COc1c(OCCCN2CCOCC2)ccc2c3n(c(=NC(=O)c4cnc(N)nc4)nc12)CCN3 + CC(C)NCC(C(=O)N1CCN(c2ncnc3c2C(C)CC3O)CC1)c1ccc(Cl)cc1
2. CCCS(=O)(=O)Nc1ccc(F)c(C(=O)c2c[nH]c3ncc(-c4ccc(Cl)cc4)cc23)c1F + CC(C)NCC(C(=O)N1CCN(c2ncnc3c2C(C)CC3O)CC1)c1ccc(Cl)cc1

Solution:
1: 39.3; 2: 61.8

// recorded viability, T/C for Cn1ncnc1[C@H]1c2n[nH]c(=O)c3cc(F)cc(c23)N[C@@H]1c1ccc(F)cc1 + CC(C)NCC(C(=O)N1CCN(c2ncnc3c2C(C)CC3O)CC1)c1ccc(Cl)cc1 : 54.8
